# protocol details: Bioavailability of vaginally administered oxytocin, study OXYPEP002
# Format: in vivo
# measurement setup: human, in vivo, iv, 1 ug, AUCiv, assumed intravenous dose of 1 μg and a CL of 70 L/h
attribute measured: AUC (ng·h/mL)

- smiles representation: "CC[C@H](C)[C@@H]1NC(=O)[C@H](Cc2ccc(O)cc2)NC(=O)[C@@H](N)CSSC[C@@H](C(=O)N2CCC[C@H]2C(=O)N[C@@H](CC(C)C)C(=O)NCC(N)=O)NC(=O)[C@H](CC(N)=O)NC(=O)[C@H](CCC(N)=O)NC1=O"
  attribute measured: "AUC"
  experimental result: 0.0143
